- assayComment: Inhibition of Saccharomyces cerevisiae alpha-glucosidase type I using p-nitrophenyl-alpha-D-glucopyranoside as substrate preincubated for 10 mins followed by substrate addition and measured after 30 mins by spectrophotometric analysis
reportedProperty: IC50 (µM)
Quick note: give the figure in µM, leave out the unit.

Please review the entries below; each comes with its answer.
compound	IC50 / µM
O=c1c2ccccc2n2ncnc2n1OCc1ccccc1	12.7
C[C@H]1O[C@H](O[C@H]2[C@H](O)[C@@H](O)[C@@H](O[C@H]3[C@H](O)[C@@H](O)C(O)O[C@@H]3CO)O[C@@H]2CO)[C@H](O)[C@@H](O)[C@@H]1N[C@H]1C=C(CO)[C@@H](O)[C@H](O)[C@H]1O (stereo partly specified) [ACARBOSE]	144

// lookup IC50 for C/C=C/n1c(=O)c2ccccc2n2ncnc12 45.6

// lookup IC50 for CSn1c(=O)c2ccccc2n2ncnc12 72.3

// lookup IC50 for CS(=O)(=O)n1c(=O)c2ccccc2n2ncnc12 83.9

// lookup IC50 for CCn1c(=O)c2ccccc2n2ncnc12 28.5

----------
- tgt: Alpha-glucosidase (Saccharomyces cerevisiae S288c, UniProt P53341+P38158+P07265)
- assayComment: Inhibition of Saccharomyces cerevisiae alpha-glucosidase using p-nitrophenyl-alpha-D-glucopyranoside as substrate preincubated for 5 mins followed by alpha-glucosidase addition and measured after 15 mins by UV-visible spectrophotometric analysis
- Format: protein assay
reportedProperty: IC50 (µM)
Quick note: give the figure in µM, leave out the unit.

N#Cc1ccc(S(=O)(=O)NNC(=O)c2cc3cc(F)ccc3[nH]2)cc1 6.2

// lookup IC50 for O=C(NNS(=O)(=O)c1ccc(Br)cc1)c1cc2cc(F)ccc2[nH]1 4.7

// lookup IC50 for O=C(NNS(=O)(=O)c1cccc(F)c1)c1cc2cc(F)ccc2[nH]1 3.2

// lookup IC50 for O=C(c1ccccc1)c1ccc2nc(-c3ccc(O)cc3)[nH]c2c1 11.02

// lookup IC50 for O=C(NNS(=O)(=O)c1ccccc1F)c1cc2cc(F)ccc2[nH]1 3.2

// lookup IC50 for O=C(NNS(=O)(=O)c1cccc(Cl)c1)c1cc2cc(F)ccc2[nH]1 7.4

----------
- tgt: Alpha-glucosidase (Saccharomyces cerevisiae S288c, UniProt P53341+P38158+P07265)
- assayComment: Inhibition of Saccharomyces cerevisiae alpha-glucosidase using p-nitrophenyl glucopyranoside as substrate preincubated for 10 mins followed by substrate addition and measured after 20 mins by spectrophotometric analysis
- Type: protein assay
Quick rule for you: IC50 under 40 µM gets y, anything else gets n.

Some solved cases for reference:
compound	tgt	labelClass
CCOC(=O)c1c(-c2ccccc2)nn2c1C=C(c1ccc(O)c(OC)c1)/C2=N/C1CCCCC1	Alpha-glucosidase (Saccharomyces cerevisiae S288c, UniProt P53341+P38158+P07265)	n
N#CC1=C(N)Oc2c(c(=O)[nH]c3c2ccc2ccccc23)C1c1ccc(Br)cc1 (stereo not drawn)	Alpha-glucosidase (Saccharomyces cerevisiae S288c, UniProt P53341+P38158+P07265)	y
CCOC(=O)c1c(SCc2cn(Cc3cccc([N+](=O)[O-])c3)nn2)nnc(-c2ccccc2)c1-c1ccccc1	Alpha-glucosidase (Saccharomyces cerevisiae S288c, UniProt P53341+P38158+P07265)	n
COc1ccc(CCn2c(SCc3cn(Cc4ccc(Br)cc4)nn3)nc3ccccc3c2=O)cc1OC	Alpha-glucosidase (Saccharomyces cerevisiae S288c, UniProt P53341+P38158+P07265)	n

Please state whether IC50 is below 40 µM for Cc1ccc(-c2nc3c(C(=O)Nc4ccccc4)c(Nc4ccccc4)nn3c(-c3ccc(Br)cc3)c2N)cc1 y

Please state whether IC50 is below 40 µM for N#CC1=C(N)Oc2c(c(=O)[nH]c3c2ccc2ccccc23)C1c1ccc(Cl)cc1 (stereo not drawn) y

Please state whether IC50 is below 40 µM for O=C(Cn1cc(CNC(=O)c2c3ccccc3nc3ccccc23)nn1)Nc1cccc(Br)c1 n
